Data provenance: ChEMBL document CHEMBL4196071

- testName: Bioavailability in Sprague-Dawley rat at 20 mg/kg, ig by LC/MS/MS analysis
- Type: ADME, organism-based
- conditionContext: in vivo, po
readoutLabel: bioavailability (%)
Just the number in %, nothing appended.

Returns the measured bioavailability for the input compound. Input: O=C(O)C1CCc2c(c3cc(OCc4ccccc4)ccc3n2C(=O)c2ccc(Cl)cc2)C1 (stereo in doubt; 7a)
20.2

====

- testName: AUC (0 to infinity) in Sprague-Dawley rat at 5 mg/kg, iv by LC/MS/MS analysis
- Format: ADME, organism-based
- Design: dose 5 mg/kg, route intravenous, time infinity
- conditionContext: in vivo
readoutLabel: AUC(0-inf)
The answer should read as a number with its unit following.

Which AUC(0-inf) reading was recorded for the molecule O=C(O)C1CCc2c(c3cc(OCc4ccccc4)ccc3n2C(=O)c2ccc(Cl)cc2)C1 (stereo in doubt; 7a) ?
71000 ng·h/mL
